Source of measurements: ChEMBL document CHEMBL5316284

experiment: Metabolic stability in mouse liver S9 fraction assessed as parent compound remaining at 5 ug/ml after 90 mins in presence of NADPH by LC/MS analysis; format: ADME, subcellular; settings: s9, 1.5 h, dose 5 µg/ml
measured.quantity: log10(t1/2) (log10 of the value in h)
Base-10 log of t1/2, unit h.

# example entries with known answers
C[C@@H]1[C@H]2C[C@@H](C[C@H]1NC(=O)CNc1cccc(Br)c1)C2(C)C; 0.76
O=C(CNc1ccc(C(F)(F)F)cc1)NC1C2CC3CC(C2)CC1C3 (stereo not given); 1.19
O=C(CNc1ccc(OC(F)(F)F)cc1)NC12CC3CC(CC(C3)C1)C2; 0.61

Okay, here is my list. What is log10(t1/2) for each of these?
1. O=C(CNc1cccc(OC(F)(F)F)c1)NC12CC3CC(CC(C3)C1)C2
2. O=C(CNc1ccc(OC(F)(F)F)cc1)NC1C2CC3CC(C2)CC1C3 (stereo not given)

*A*
-0.40
0.57

----------
test: Cytotoxicity against mouse HEI-OC1 cells assessed as inhibition of cell growth measured after 72 hrs by MTT assay; type: toxicity, cell-based
measured.quantity: IC50 at 72 h (µM)
Give bare numbers, in µM.

*Q* Param item = C[C@@H]1[C@H]2C[C@@H](C[C@H]1NC(=O)CNc1cccc(Cl)c1)C2(C)C ; retrieve measured IC50 at 72 h.
*A* 14.1

----------
Provide the recorded MIC for the entries that follow.
assay: Antimycobacterial activity against Mycobacterium avium subsp. avium 2585R assessed as inhibition of bacterial growth by visual analysis; type: functional
Give bare numbers, in µg/mL.

Take a look at these entries with their results.
C[C@@H]1[C@H]2C[C@@H](C[C@H]1NC(=O)CNc1ccccc1Cl)C2(C)C; 16
C[C@@H]1[C@H]2C[C@@H](C[C@H]1NC(=O)CNc1cccc(Br)c1)C2(C)C; 16
C[C@@H]1[C@H]2C[C@@H](C[C@H]1NC(=O)CNc1cccc(Cl)c1)C2(C)C; 8

*Q* Value lookup for MIC; key = O=C(CNc1cccc(OC(F)(F)F)c1)NC12CC3CC(CC(C3)C1)C2
*A* 8

----------
assay: Selectivity index, ratio of IC50 for Cytotoxicity against human WI26VA4 cells to MIC for antimycobacterial activity against Mycobacterium abscessus […]; format: toxicity, cell-based; settings: read-out: Selectivity Index
Task for the reader: assign each of the following compounds its reported selectivity ratio.

Answered cases to consult:
C[C@@H]1[C@H]2C[C@@H](C[C@H]1NC(=O)CNc1ccc(OC(F)(F)F)cc1)C2(C)C; > 20
C[C@@H]1[C@H]2C[C@@H](C[C@H]1NC(=O)CNc1cccc(Cl)c1)C2(C)C; > 40
O=C(CNc1ccc(OC(F)(F)F)cc1)NC1C2CC3CC(C2)CC1C3 (configuration not stated); > 10
C[C@@H]1[C@H]2C[C@@H](C[C@H]1NC(=O)CNc1cccc(Br)c1)C2(C)C; > 20
Cc1cc(C)c2cc(C(=O)NC3CCCCCCC3)[nH]c2c1; > 237
O=C(CNc1cccc(OC(F)(F)F)c1)NC12CC3CC(CC(C3)C1)C2; > 40
O=C(CNc1ccc(Br)cc1)NC12CC3CC(CC(C3)C1)C2; > 10
O=C(CNc1ccc(C(F)(F)F)cc1)NC1C2CC3CC(C2)CC1C3 (configuration not stated); > 5

Lab note: each compound below needs its selectivity ratio filled in.
1. O=C(CNc1ccc(OC(F)(F)F)cc1)NC12CC3CC(CC(C3)C1)C2
2. C[C@@H]1[C@H]2C[C@@H](C[C@H]1NC(=O)CNc1ccccc1Cl)C2(C)C
3. O=C(CNc1cccc(Br)c1)NC12CC3CC(CC(C3)C1)C2
4. O=C(CNc1cccc(Cl)c1)NC12CC3CC(CC(C3)C1)C2

*A*
1: > 10; 2: > 20; 3: > 20; 4: > 20
